Consider the following compounds; for each one, report its Ki.
SUBJECT_OF_TEST: Phenylethanolamine N-methyltransferase (Bos taurus, UniProt P10938)
Sequence (P10938 whole entry): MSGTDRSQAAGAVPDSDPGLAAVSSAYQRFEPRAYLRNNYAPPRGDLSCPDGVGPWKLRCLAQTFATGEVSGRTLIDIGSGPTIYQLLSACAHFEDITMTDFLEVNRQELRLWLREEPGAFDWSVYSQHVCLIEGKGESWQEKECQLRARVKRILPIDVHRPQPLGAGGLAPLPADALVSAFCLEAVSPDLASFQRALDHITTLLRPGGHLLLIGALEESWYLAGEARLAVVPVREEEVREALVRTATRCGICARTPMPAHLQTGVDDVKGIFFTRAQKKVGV
METHOD: In vitro inhibitory activity against bovine phenylethanolamine N-methyl-transferase
One number for each entry, in µM.

Recorded Ki, per entry:
{"columns": ["COMPOUND", "Ki / µM"],
 "data": [
  ["NC12CCC(C1)c1ccc(O)cc1C2 (stereo not drawn)", 1270],
  ["NC1CC2CC1c1ccc(O)cc12 (stereo not drawn)", 304],
  ["NC12CCC(C1)c1cc(O)ccc1C2 (stereo not drawn)", 111]
]}

Hi! Can you tell me Ki for each of these compounds?
1. NC12CCC(C1)c1ccccc1C2 (stereo not drawn)
2. COc1ccc2c(c1)CC(N)CC2 (stereo not drawn)
3. COc1ccc2c(c1)CCC(N)C2 (stereo not drawn)

[206, 228, 34]

Hi! Can you tell me Ki for each of these compounds?
1. COc1ccc2c(c1)C1CCC(N)(C2)C1 (stereo not drawn)
2. NC1CCc2c(O)cccc2C1 (stereo not drawn)
3. NC1CCc2ccccc2C1 (stereo not drawn)
4. NC1CC2CC1c1ccccc12 (stereo not drawn)

[389, 21, 6.8, 479]
